Tested on: Human immunodeficiency virus 1
assay-method-text: Antiviral activity against HIV1 LAI infected in human MT2 cells by MTT assay
Format: functional, organism-based
condition-set: Human immunodeficiency virus 1, LAI
measured-property: EC50
Put down the number, then write its unit next to it.

Past entries and their recorded results:
COc1ccc2c(c1)OC/C=C/CCCCN(C[C@@H](O)[C@H](Cc1ccccc1)NC(=O)O[C@H]1CO[C@H]3OCC[C@H]31)S2(=O)=O = 14 nM
CC(C)CN(C[C@@H](O)[C@H](Cc1ccccc1)NC(=O)O[C@H]1CCOC1)S(=O)(=O)c1ccc(N)cc1 = 24 nM
COc1ccc2c(c1)OCCCCCCCCN(C[C@@H](O)[C@H](Cc1ccccc1)NC(=O)O[C@H]1CO[C@H]3OCC[C@H]31)S2(=O)=O = 22 nM

For the next question, use this compound.
Input line: Recorded EC50 of `COc1ccc2c(c1)OCC/C=C\CCCCN(C[C@@H](O)[C@H](Cc1ccccc1)NC(=O)O[C@H]1CO[C@H]3OCC[C@H]31)S2(=O)=O` , please.
Output line: 2 nM

----------
Hi there, I'd appreciate the recorded EC50 for every entry that follows.
System: Human immunodeficiency virus 1
assay-method-text: Antiviral activity against multidrug-resistant HIV1 isolate B containing protease L10I, K14R, L33I, M36I,M46I, F53I, K55R, I62V, L63P, A71V, G73S, V82A, L90M, and I93L mutant infected in human PHA-PBMC cells by p24 Gag protein production inhibition assay
condition-set: Human immunodeficiency virus 1, isolate B

Past entries and their recorded results:
COc1ccc2c(c1)OCCC/C=C\CCCCN(C[C@@H](O)[C@H](Cc1ccccc1)NC(=O)O[C@H]1CO[C@H]3OCC[C@H]31)S2(=O)=O = 89 nM
CC(C)CN(C[C@@H](O)[C@H](Cc1ccccc1)NC(=O)O[C@H]1CCOC1)S(=O)(=O)c1ccc(N)cc1 = > 1000 nM
CC(C)(C)NC(=O)[C@@H]1C[C@@H]2CCCC[C@@H]2CN1C[C@@H](O)[C@H](Cc1ccccc1)NC(=O)[C@H](CC(N)=O)NC(=O)c1ccc2ccccc2n1 = 270 nM

Can you give me EC50 for all of these, one by one?
1. COc1ccc2c(c1)OCC/C=C\CCCCN(C[C@@H](O)[C@H](Cc1ccccc1)NC(=O)O[C@H]1CO[C@H]3OCC[C@H]31)S2(=O)=O
2. CC(C)(C)NC(=O)[C@@H]1CN(Cc2cccnc2)CCN1C[C@@H](O)C[C@@H](Cc1ccccc1)C(=O)N[C@H]1c2ccccc2C[C@H]1O
3. COC(=O)N[C@H](C(=O)N[C@@H](Cc1ccccc1)[C@@H](O)CN(Cc1ccc(-c2ccccn2)cc1)NC(=O)[C@@H](NC(=O)OC)C(C)(C)C)C(C)(C)C
4. Cc1cccc(C)c1OCC(=O)N[C@@H](Cc1ccccc1)[C@@H](O)C[C@H](Cc1ccccc1)NC(=O)[C@H](C(C)C)N1CCCNC1=O
5. CCC[C@@]1(CCc2ccccc2)CC(O)=C([C@H](CC)c2cccc(NS(=O)(=O)c3ccc(C(F)(F)F)cn3)c2)C(=O)O1

Output line:
37 nM
> 1000 nM
200 nM
> 1000 nM
180 nM

----------
Hi there, I'd appreciate the recorded pEC50 for every entry that follows.
Tested on: Human immunodeficiency virus 2
assay-method-text: Antiviral activity against HIV2 EHO infected in human MT2 cells by MTT assay
Type: functional, organism-based
condition-set: Human immunodeficiency virus 2, EHO
One number for each entry, as −log10 of the molar value.

Past entries and their recorded results:
CC(C)CN(C[C@@H](O)[C@H](Cc1ccccc1)NC(=O)O[C@H]1CCOC1)S(=O)(=O)c1ccc(N)cc1 = 6.92
CCC[C@@]1(CCc2ccccc2)CC(O)=C([C@H](CC)c2cccc(NS(=O)(=O)c3ccc(C(F)(F)F)cn3)c2)C(=O)O1 = 6.52
COc1ccc2c(c1)OCCC/C=C\CCCCN(C[C@@H](O)[C@H](Cc1ccccc1)NC(=O)O[C@H]1CO[C@H]3OCC[C@H]31)S2(=O)=O = 7.74
Cc1cccc(C)c1OCC(=O)N[C@@H](Cc1ccccc1)[C@@H](O)C[C@H](Cc1ccccc1)NC(=O)[C@H](C(C)C)N1CCCNC1=O = 7.46

Input line: Recorded pEC50 of `COc1ccc2c(c1)OCC/C=C\CCCCN(C[C@@H](O)[C@H](Cc1ccccc1)NC(=O)O[C@H]1CO[C@H]3OCC[C@H]31)S2(=O)=O` , please.
Output line: 8.00

----------
assay-method-text: Cytotoxicity against human MT2 cells after 7 days by MTT assay
Type: cell-based
measured-property: CC50 at 168 h (µM)
One number for each entry, in µM.

Past entries and their recorded results:
CCC[C@@]1(CCc2ccccc2)CC(O)=C([C@H](CC)c2cccc(NS(=O)(=O)c3ccc(C(F)(F)F)cn3)c2)C(=O)O1 = 54.1
COc1ccc2c(c1)OCC/C=C\CCCCN(C[C@@H](O)[C@H](Cc1ccccc1)NC(=O)O[C@H]1CO[C@H]3OCC[C@H]31)S2(=O)=O = 48.8
COc1ccc2c(c1)OCCCCCCCCN(C[C@@H](O)[C@H](Cc1ccccc1)NC(=O)O[C@H]1CO[C@H]3OCC[C@H]31)S2(=O)=O = 33.3

Can you give me CC50 at 168 h for all of these, one by one?
1. COc1ccc2c(c1)OCCC/C=C\CCCCN(C[C@@H](O)[C@H](Cc1ccccc1)NC(=O)O[C@H]1CO[C@H]3OCC[C@H]31)S2(=O)=O
2. COc1ccc2c(c1)OC/C=C/CCCCN(C[C@@H](O)[C@H](Cc1ccccc1)NC(=O)O[C@H]1CO[C@H]3OCC[C@H]31)S2(=O)=O

Output line:
[33.1, 44.9]

----------
Hi there, I'd appreciate the recorded pEC50 for every entry that follows.
Test system: Human immunodeficiency virus 1
assay-method-text: Antiviral activity against HIV1 LAI infected in human MT2 cells by MTT assay
Format: functional, organism-based
condition-set: Human immunodeficiency virus 1, LAI
One number for each entry, as −log10 of the molar value.

Past entries and their recorded results:
Cc1cccc(C)c1OCC(=O)N[C@@H](Cc1ccccc1)[C@@H](O)C[C@H](Cc1ccccc1)NC(=O)[C@H](C(C)C)N1CCCNC1=O = 7.41
CCC[C@@]1(CCc2ccccc2)CC(O)=C([C@H](CC)c2cccc(NS(=O)(=O)c3ccc(C(F)(F)F)cn3)c2)C(=O)O1 = 6.77

For the next question, use this compound.
Input line: Recorded pEC50 of `COc1ccc2c(c1)OCCC/C=C\CCCCN(C[C@@H](O)[C@H](Cc1ccccc1)NC(=O)O[C@H]1CO[C@H]3OCC[C@H]31)S2(=O)=O` , please.
Output line: 8.40

----------
Hi there, I'd appreciate the recorded pEC50 for every entry that follows.
Tested on: Human immunodeficiency virus 1
assay-method-text: Antiviral activity against multidrug-resistant HIV1 isolate G containing L10I, V11I, T12E, I15V, L19I,R41K, M46L, L63P, A71T, V82A, and L90M mutant infected in human PHA-PBMC cells by p24 Gag protein production inhibition assay
condition-set: Human immunodeficiency virus 1, isolate G
Answers are plain numbers, as −log10 of the molar value.

Past entries and their recorded results:
CCC[C@@]1(CCc2ccccc2)CC(O)=C([C@H](CC)c2cccc(NS(=O)(=O)c3ccc(C(F)(F)F)cn3)c2)C(=O)O1 = 6.62
CC(C)CN(C[C@@H](O)[C@H](Cc1ccccc1)NC(=O)O[C@H]1CCOC1)S(=O)(=O)c1ccc(N)cc1 = 6.37
CC(C)(C)NC(=O)[C@@H]1C[C@@H]2CCCC[C@@H]2CN1C[C@@H](O)[C@H](Cc1ccccc1)NC(=O)[C@H](CC(N)=O)NC(=O)c1ccc2ccccc2n1 = 7.52
COc1ccc2c(c1)OCC/C=C\CCCCN(C[C@@H](O)[C@H](Cc1ccccc1)NC(=O)O[C@H]1CO[C@H]3OCC[C@H]31)S2(=O)=O = 7.24

Can you give me pEC50 for all of these, one by one?
1. COc1ccc2c(c1)OCCC/C=C\CCCCN(C[C@@H](O)[C@H](Cc1ccccc1)NC(=O)O[C@H]1CO[C@H]3OCC[C@H]31)S2(=O)=O
2. COC(=O)N[C@H](C(=O)N[C@@H](Cc1ccccc1)[C@@H](O)CN(Cc1ccc(-c2ccccn2)cc1)NC(=O)[C@@H](NC(=O)OC)C(C)(C)C)C(C)(C)C

Output line:
7.55
7.48

Input line: Recorded pEC50 of `CC(C)(C)NC(=O)[C@@H]1CN(Cc2cccnc2)CCN1C[C@@H](O)C[C@@H](Cc1ccccc1)C(=O)N[C@H]1c2ccccc2C[C@H]1O` , please.
Output line: 6.47

----------
System: Human immunodeficiency virus 1
assay-method-text: Antiviral activity against multidrug-resistant HIV1 isolate C containing protease L10I, I15V, K20R, L24I, M36I, M46L, I54V, I62V, L63P, K70Q, V82A, and L89M mutant infected in human PHA-PBMC cells by p24 Gag protein production inhibition assay
condition-set: Human immunodeficiency virus 1, isolate C
measured-property: EC50 (nM)
One number for each entry, in nM.

Can you give me EC50 for all of these, one by one?
1. CCC[C@@]1(CCc2ccccc2)CC(O)=C([C@H](CC)c2cccc(NS(=O)(=O)c3ccc(C(F)(F)F)cn3)c2)C(=O)O1
2. COc1ccc2c(c1)OCC/C=C\CCCCN(C[C@@H](O)[C@H](Cc1ccccc1)NC(=O)O[C@H]1CO[C@H]3OCC[C@H]31)S2(=O)=O
3. CC(C)CN(C[C@@H](O)[C@H](Cc1ccccc1)NC(=O)O[C@H]1CCOC1)S(=O)(=O)c1ccc(N)cc1

Output line:
1: 380; 2: 44; 3: 370

Can you give me EC50 for all of these, one by one?
1. COC(=O)N[C@H](C(=O)N[C@@H](Cc1ccccc1)[C@@H](O)CN(Cc1ccc(-c2ccccn2)cc1)NC(=O)[C@@H](NC(=O)OC)C(C)(C)C)C(C)(C)C [ATAZANAVIR]
2. COc1ccc2c(c1)OCCC/C=C\CCCCN(C[C@@H](O)[C@H](Cc1ccccc1)NC(=O)O[C@H]1CO[C@H]3OCC[C@H]31)S2(=O)=O
3. CC(C)(C)NC(=O)[C@@H]1C[C@@H]2CCCC[C@@H]2CN1C[C@@H](O)[C@H](Cc1ccccc1)NC(=O)[C@H](CC(N)=O)NC(=O)c1ccc2ccccc2n1

Output line:
1: 65; 2: 29; 3: 32

Each recorded value in this set is attributed to ChEMBL document CHEMBL1649305.
